All figures here come from ChEMBL document CHEMBL1649229.

Assay: Cmax in serum of Wistar rat infected with methicillin-resistant Staphylococcus aureus HUSA 304 at 70 mg/kg/day, ip for 7 days
Format: ADME, organism-based
Design: dose 70 mg/kg/day, route intraperitoneal
READOUT_KIND: Cmax (µg/mL)

MOLECULE_SMILES | SCALE_UNIT | ENDPOINT_RESULT
CCCCCCCCCC(=O)N[C@@H](Cc1c[nH]c2ccccc12)C(=O)N[C@H](CC(N)=O)C(=O)N[C@@H](CC(=O)O)C(=O)N[C@@H]1C(=O)NCC(=O)N[C@@H](CCCN)C(=O)N[C@@H](CC(=O)O)C(=O)N[C@H](C)C(=O)N[C@@H](CC(=O)O)C(=O)NCC(=O)N[C@H](CO)C(=O)N[C@@H]([C@H](C)CC(=O)O)C(=O)N[C@@H](CC(=O)c2ccccc2N)C(=O)O[C@@H]1C | µg/mL | 128

----------
Assay: Cmax in tissue cage fluid of Wistar rat infected with methicillin-resistant Staphylococcus aureus HUSA 304 at 70 mg/kg/day, ip
Format: ADME, organism-based, Interstitial fluid
Set-up: dose 70 mg/kg/day, route intraperitoneal
READOUT_KIND: Cmax (ng/mL)

MOLECULE_SMILES | SCALE_UNIT | ENDPOINT_RESULT
CCCCCCCCCC(=O)N[C@@H](Cc1c[nH]c2ccccc12)C(=O)N[C@H](CC(N)=O)C(=O)N[C@@H](CC(=O)O)C(=O)N[C@@H]1C(=O)NCC(=O)N[C@@H](CCCN)C(=O)N[C@@H](CC(=O)O)C(=O)N[C@H](C)C(=O)N[C@@H](CC(=O)O)C(=O)NCC(=O)N[C@H](CO)C(=O)N[C@@H]([C@H](C)CC(=O)O)C(=O)N[C@@H](CC(=O)c2ccccc2N)C(=O)O[C@@H]1C | ng/mL | 34000

----------
Test: Cmax in serum of Wistar rat infected with methicillin-resistant Staphylococcus aureus HUSA 304 at 45 mg/kg/day, ip for 7 days
Type: ADME, organism-based
Design: dose 45 mg/kg/day, route intraperitoneal
READOUT_KIND: Cmax

MOLECULE_SMILES | ENDPOINT_RESULT
CCCCCCCCCC(=O)N[C@@H](Cc1c[nH]c2ccccc12)C(=O)N[C@H](CC(N)=O)C(=O)N[C@@H](CC(=O)O)C(=O)N[C@@H]1C(=O)NCC(=O)N[C@@H](CCCN)C(=O)N[C@@H](CC(=O)O)C(=O)N[C@H](C)C(=O)N[C@@H](CC(=O)O)C(=O)NCC(=O)N[C@H](CO)C(=O)N[C@@H]([C@H](C)CC(=O)O)C(=O)N[C@@H](CC(=O)c2ccccc2N)C(=O)O[C@@H]1C | 103 µg/mL

----------
Experiment: AUC (0 to infinity) in tissue cage fluid of Wistar rat infected with methicillin-resistant Staphylococcus aureus HUSA 304 at 45 mg/kg/day, ip
Assay type: ADME, organism-based
Design: dose 45 mg/kg/day, time infinity, route intraperitoneal

MOLECULE_SMILES | SCALE_UNIT | AUC(0-inf)
CCCCCCCCCC(=O)N[C@@H](Cc1c[nH]c2ccccc12)C(=O)N[C@H](CC(N)=O)C(=O)N[C@@H](CC(=O)O)C(=O)N[C@@H]1C(=O)NCC(=O)N[C@@H](CCCN)C(=O)N[C@@H](CC(=O)O)C(=O)N[C@H](C)C(=O)N[C@@H](CC(=O)O)C(=O)NCC(=O)N[C@H](CO)C(=O)N[C@@H]([C@H](C)CC(=O)O)C(=O)N[C@@H](CC(=O)c2ccccc2N)C(=O)O[C@@H]1C | µg·h/mL | 795
